property-name: melting point (°C)
Please give a number only; it is taken to be in °C.

- molecule: "CCCN(C(=O)Nc1ccc(OCC)cc1)c1nc(C)c(S(=O)(=O)NCc2ccccc2)s1"
  value-unit: "°C"
  melting point: 145
- molecule: "COCCN(C)S(=O)(=O)c1sc(N(C)C(=O)Nc2ccc(N3CCOCC3)cc2)nc1C"
  value-unit: "°C"
  melting point: 156
- molecule: "COCCN(C(=O)Nc1ccc(-c2ccccc2)cc1)c1nc(C)c(S(N)(=O)=O)s1 [195]"
  value-unit: "°C"
  melting point: 193
- molecule: "CCOc1ccc(NC(=O)N(Cc2ccccc2)c2nc(C)c(S(=O)(=O)N(C)C)s2)cc1"
  value-unit: "°C"
  melting point: 187
- molecule: "CCOc1ccc(NC(=O)N(C)c2nc(CC)c(S(=O)(=O)N(C)C)s2)cc1"
  value-unit: "°C"
  melting point: 176
- molecule: "CNS(=O)(=O)c1sc(N(C)C(=O)Nc2ccc(N3CCOCC3)cc2)nc1Cl"
  value-unit: "°C"
  melting point: 228

Task: Quick one: melting point for CN(C(=O)Nc1ccc(N2CCOCC2)cc1)c1nc(Cl)c(S(=O)(=O)N(C)C)s1 [9] ?
Result: 210

Task: Quick one: melting point for "CCOc1ccc(NC(=O)N(Cc2ccncc2)c2nc(C)c(S(=O)(=O)NC)s2)cc1" ?
Result: 198

Task: Quick one: melting point for "Cc1nc(N(C)C(=O)Nc2ccc(N3CCSCC3)cc2)sc1S(=O)(=O)N(C)C" ?
Result: 196
